- TESTED ON: human GLP-1 receptor (GLP1R) (human, UniProt P43220)
- TEST SUMMARY: cell-based or functional assay
*1 amine or outer side, *2 acyl side, *3 side chain or, on linkers, in order; H or OH if unused. Bridges are numbered along the chain shown (N, C = ends). Where no end group is shown, it is not given here. [ ]: non-standard residue; d: D form. γGlu = O=C(O)[C@H](CCC(=O)[*:2])N[*:1]; Met(O2) = CS(=O)(=O)CC[C@H](N)C(=O)O; Aib = CC(C)(N)C(=O)O
MEASURED PARAMETER: GLP1R EC50 human (nM), cAMP activity assay

Here is how some binders turned out for GLP1R EC50 human (nM), cAMP activity assay.
Which GLP1R EC50 human (nM), cAMP activity assay reading was recorded for the binder H[Aib]QGTFTSDKSKYLD[Aib]RAAQDFVEWLMKTK(γGlu)-NH2 (lactam 24-28; not fully specified (residue 10); printed as HUQGTFTSDK(γEγEC16)SKYLDURAAQDFVE*WLMK*TKγE-NH2) [TP486] ? 0.29 nM

Which GLP1R EC50 human (nM), cAMP activity assay reading was recorded for the binder H[dS]QGTFTSDKSKYLDARAAQDFVKWLLET-NH2 (lactam 24-28; not fully specified (residue 10); printed as HsQGTFTSDK(γEγEC16)SKYLDARAAQDFVK*WLLE*T-NH2) [TP834] ? 0.137 nM

Which GLP1R EC50 human (nM), cAMP activity assay reading was recorded for the binder HXQGTFTSDXSKYLDERAAEDFVKWLLDT (s = D-Serine at 2; K10 conjugated to γEγE-C16 fatty acid; E*20 and K*24 cyclized to form a lactam containing ring; C-terminal amide) [TP484] ? 0.12 nM

***
Which GLP1R EC50 human (nM), cAMP activity assay reading was recorded for the binder H[Aib]QGTFTSDKSKYLD[Aib]KAAQEFVQWL[Met(O2)]DTK(γGlu)-NH2 (lactam 17-21; not fully specified (residue 10); printed as HUQGTFTSDK(γEγEC16)SKYLDUK*AAQE*FVQWL2DTKγE-NH2) [TP848] ? 0.044 nM
